- system-name: human GLP-1 receptor (human, UniProt P43220 24-463)
- method-notes: cell-based or functional assay
Positions of bridges follow the written chain, without caps; N, C: chain ends. Non-standard residues stand in square brackets, D forms with d. No end group written: not given here. *: point of attachment. Acetyl(2-(4-imidazolyl)) = O=C(Cc1c[nH]cn1)*; Aib = CC(C)(N)C(=O)O
Response field class: enum, chosen by comparing In vitro Activity Compared to Native Peptide (%) vs. GLP-1 against category 1 (below 6%), category 2 (6% to below 30%), category 3 (30% or more)

Sample answers from the record:
Y[Aib]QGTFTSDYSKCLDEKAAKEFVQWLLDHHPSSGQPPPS (bridge 16-20) [triple agonist of SEQ ID NO: 68] ... category 2
[Acetyl(2-(4-imidazolyl))][Aib]QGTFTSDKSSYLDERAAQDFVQWLLDGGPSSGAPPPSS [triple agonist of SEQ ID NO: 38] ... category 1
H[Aib]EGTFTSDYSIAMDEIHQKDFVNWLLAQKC (bridge 16-20) [triple agonist of SEQ ID NO: 79] ... category 3
{Acetyl(2-(4-imidazolyl))}-[Aib]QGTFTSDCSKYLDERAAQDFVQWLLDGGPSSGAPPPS (ends and bridges not checked) [triple agonist of SEQ ID NO: 63] ... category 2
Y[Aib]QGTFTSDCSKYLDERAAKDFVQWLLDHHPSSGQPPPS (bridge 16-20) [triple agonist of SEQ ID NO: 72] ... category 2

Which of the defined bands does the recorded In vitro Activity Compared to Native Peptide (%) vs. GLP-1 of H[Aib]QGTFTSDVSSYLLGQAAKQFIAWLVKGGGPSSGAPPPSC [triple agonist of SEQ ID NO: 3] sit within?
category 1

Band for {Acetyl(2-(4-imidazolyl))}-[Aib]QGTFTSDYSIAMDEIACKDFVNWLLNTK (bridge 15-19) [triple agonist of SEQ ID NO: 61] ?
category 3

Could you place Y[Aib]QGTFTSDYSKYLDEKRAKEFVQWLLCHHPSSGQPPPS (bridge 16-20) [triple agonist of SEQ ID NO: 95] in its proper category? Many thanks.
category 1

Band assignment needed for H[Aib]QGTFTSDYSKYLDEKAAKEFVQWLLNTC (bridge 16-20) [triple agonist of SEQ ID NO: 29] please.
category 3

Band assignment needed for [Acetyl(2-(4-imidazolyl))]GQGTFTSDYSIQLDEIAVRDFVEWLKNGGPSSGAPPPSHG [triple agonist of SEQ ID NO: 14] please.
category 2

Please classify: H[Aib]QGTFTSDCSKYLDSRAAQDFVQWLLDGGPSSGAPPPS [triple agonist of SEQ ID NO: 26]
category 3

In plain terms, what class is H[Aib]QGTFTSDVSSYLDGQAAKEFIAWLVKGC [triple agonist of SEQ ID NO: 1] ?
category 1

Class (by measured In vitro Activity Compared to Native Peptide (%) vs. GLP-1) for [Acetyl(2-(4-imidazolyl))][Aib]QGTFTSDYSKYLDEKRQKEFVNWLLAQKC (bridge 16-20) [triple agonist of SEQ ID NO: 93]
category 1
